EXPERIMENTAL_SYSTEM: PD-1/PD-L1 PPI (Homo sapiens)
ASSAY_NOTES: PDL1/PD1 Binding Assay
TEST_CONDITIONS: PDL1-6×His 0.3 nM, PD1-Fc-Avi-Biotin 2.5 nM, Acceptor/Donor beads, Envision reader
Procedure: Compounds to be tested were serially diluted in DMSO, and further diluted in assay buffer (25 mM Hepes pH 7.4, 150 mM NaCl, 0.005% Tween 20, BSA 0.01%). Diluted compounds were added to the wells with final concentration of DMSO at 1%. […] The plates were sealed with foil and incubated in the dark for additional 1 h or overnight before reading on an Envision reader. The IC50 values were determined by fitting the curves using a four-parameter equation in Graphpad Prism 8.
pIC50: −log10 of the molar value.
Could you please report measured pIC50 for the items listed next?

Exam item: Query (molecule): COc1nc(-c2cccc(-c3cccc(NC(=O)c4cn(C)c(=O)n(C)c4=O)c3Cl)c2Cl)cc2c1[C@H](N[C@@H]1CCOC[C@@H]1O)CC2 (single isomer, unassigned) [Compound A-30] ; field requested: pIC50
Marked response: ≥ 8.00

Exam item: For the molecule shown here, COc1nc(-c2cccc(-c3cccc(NC(=O)c4cn(C)c(=O)n(C)c4=O)c3Cl)c2Cl)cc2c1C(N1CC3(CCN(C(=O)OC(C)(C)C)C3)C1)CC2 [Compound D-16] , give the reported pIC50.
Marked response: 7.00 to 8.00

Exam item: Can you share its pIC50? I mean this molecule: COc1nc(-c2cccc(-c3cccc(NC(=O)c4ccnn(C)c4=O)c3C)c2F)cc2c1[C@@H](NC[C@@H]1CCC(=O)N1)CC2 [Compound A-45]
Marked response: ≥ 8.00

Exam item: For COc1nc(-c2cccc(-c3cccc(NC(=O)c4cn(C)c(=O)n(C)c4=O)c3F)c2C)cc2c1[C@H](NC[C@@H]1CCC(=O)N1)CC2 [Compound A-14] , what is its reported pIC50?
Marked response: ≥ 8.00

Exam item: Quick check: pIC50 of COc1nc(-c2cccc(-c3cccc(NC(=O)c4ccn[nH]c4=O)c3C)c2Cl)cc2c1[C@@H](NC[C@@H]1CCC(=O)N1)CC2 [Compound A-52] ?
Marked response: ≥ 8.00

Exam item: What measured pIC50 goes with COc1nc(-c2cccc(-c3cccc(NC(=O)c4cn(C)c(=O)n(C)c4=O)c3C)c2C)cc2c1C(N1C[C@@H](O)[C@@H]1C)CC2 (stereo partly drawn) [Compound D-19] ?
Marked response: ≥ 8.00

----------
Please provide measured IC50 for the entries that follow.
EXPERIMENTAL_SYSTEM: PD-1/PD-L1 PPI (Homo sapiens, UniProt Q9NZQ7)
Sequence (Q9NZQ7 19-238 limits assumed): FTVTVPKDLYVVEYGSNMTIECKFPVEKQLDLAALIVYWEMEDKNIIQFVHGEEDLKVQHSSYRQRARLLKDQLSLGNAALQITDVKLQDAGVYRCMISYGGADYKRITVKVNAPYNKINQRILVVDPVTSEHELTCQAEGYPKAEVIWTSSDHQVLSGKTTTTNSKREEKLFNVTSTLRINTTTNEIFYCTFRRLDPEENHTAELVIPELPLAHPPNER
ASSAY_NOTES: PDL1/PD1 Binding Assay
TEST_CONDITIONS: PDL1-6×His 0.3 nM, PD1-Fc-Avi-Biotin 2.5 nM, Acceptor/Donor beads, Envision reader

Exam item: Look up IC50 for this compound: COc1nc(-c2cccc(-c3cccc(NC(=O)c4cn(C)c(=O)n(C)c4=O)c3Cl)c2Cl)cc2c1[C@H](NC[C@@H]1CNC(=O)C1)CC2 (single isomer, unassigned)
Marked response: ≤ 10 nM

Exam item: Consider the compound shown here: `CCCCOC(=O)N(C[C@@H]1CCC(=O)N1)[C@H]1CCc2cc(-c3cccc(-c4cccc(NC(=O)c5cn(C)c(=O)n(C)c5=O)c4C)c3Cl)nc(OC)c21` What is its recorded IC50?
Marked response: ≤ 10 nM

Exam item: Query: IC50; subject: COc1nc(-c2cccc(-c3cccc(NC(=O)c4cn(C)c(=O)n(C)c4=O)c3C)c2Cl)cc2c1C(NC[C@@H]1CCC(=O)N1)C(O)C2 (single isomer, unassigned) [Compound A-127]
Marked response: ≤ 10 nM

Exam item: Value lookup for IC50; key = COc1nc(-c2cccc(-c3cccc(NC(=O)c4nn(C)c(=O)n(C)c4=O)c3C)c2Cl)cc2c1[C@H](N[C@@H]1COC[C@@H]1O)CC2 (single isomer, unassigned)
Marked response: ≤ 10 nM

Exam item: Suppose we examine the compound COc1nc(-c2cccc(-c3cccc(NC(=O)c4cn(C)c(=O)n(C)c4=O)c3C)c2Cl)cc2c1[C@@H](NC[C@@H]1CNC(=O)C1)CC2 (single isomer, unassigned) ; what IC50 value has been reported?
Marked response: ≤ 10 nM

Exam item: Record request: IC50 value, item COc1nc(-c2cccc(-c3cccc(NC(=O)c4nn(C)c(=O)n(C)c4=O)c3C)c2Cl)cc2c1[C@@H](N[C@@H]1COC[C@H]1O)CC2 (single isomer, unassigned)
Marked response: ≤ 10 nM

Exam item: Recorded IC50 for COc1nc(-c2cccc(-c3cccc(NC(=O)c4cn(C)c(=O)n(C)c4=O)c3C)c2C)cc2c1[C@H](N1CC(OC)C1)CC2 (single isomer, unassigned) , please?
Marked response: 10 to 100 nM

Exam item: Requested field: IC50. Item: `COc1nc(-c2cccc(-c3cccc(NC(=O)c4cn(C)c(=O)n(C)c4=O)c3F)c2F)cc2c1[C@H](NC[C@@H]1CCC(=O)N1)CC2`
Marked response: ≤ 10 nM

Exam item: Which IC50 value is on record for COc1nc(-c2cccc(-c3cccc(NC(=O)c4cn(C)c(=O)n(C)c4=O)c3C)c2C)cc2c1[C@@H](N[C@@H]1CCOC[C@H]1O)CC2 (single isomer, unassigned) ?
Marked response: 10 to 100 nM

Exam item: Requested field: IC50. Item: COc1nc(-c2cccc(-c3cccc(NC(=O)c4cn(C)c(=O)n(C)c4=O)c3Cl)c2Cl)cc2c1[C@@H](N1CC3(CCNC3=O)C1)CC2 (single isomer, unassigned)
Marked response: ≤ 10 nM

Every entry's value here was drawn from patent US12534450B2.
